Source listed as paper PMC9855371.

Quick reference: pEC50 of the listed items.
Test system: Leishmania major promastigotes
Test: Leishmania major promastigote viability, MTT assay
Type: cell-based
Details: Leishmania major, 72 h, Leishmania major promastigotes after 72 h; means of n = 3, SD ± 15%
Reminder that pEC50 means the negative base-10 logarithm of the concentration expressed in mol/L.

molecule	pEC50
N#CC1=C(N)n2c(nc3ccccc32)NC1c1ccc(F)cc1 (stereo not shown)	4.84

Form: molecule = C[C@@H]1[C@H](O)[C@@H](C)/C=C/C=C/C=C/C=C/C=C/C=C/C=C/[C@H](O[C@@H]2O[C@H](C)[C@@H](O)[C@H](N)[C@@H]2O)C[C@@H]2O[C@](O)(C[C@@H](O)C[C@@H](O)[C@H](O)CC[C@@H](O)C[C@@H](O)CC(=O)O[C@H]1C)C[C@H](O)[C@H]2C(=O)O [AmB, Amphotericin B, reference compound] ; pEC50 = 6.08

Form: molecule = N#CC1=C(N)n2c(nc3ccccc32)NC1c1cccnc1 (stereo not shown) ; pEC50 = 4.27

Form: molecule = N#CC1=C(N)n2c(nc3ccccc32)NC1c1cc(F)cc(F)c1 (stereo not shown) ; pEC50 = 3.97

Form: molecule = N#Cc1c(-c2ccccc2F)nc2nc3ccccc3n2c1N ; pEC50 = 4.49

Form: molecule = N#CC1=C(N)n2c(nc3ccccc32)NC1c1ccccc1F (stereo not shown) ; pEC50 = 4.30

Form: molecule = N#Cc1c(-c2ccc(F)cc2)nc2nc3ccccc3n2c1N ; pEC50 = 4.43

* * *

Quick reference: pEC50 of the listed items.
Tested on: Leishmania major promastigotes
Assay: Leishmania major promastigote viability, MTT assay
Assay type: cell-based
Settings: Leishmania major, 72 h, Leishmania major promastigotes after 72 h; means of n = 3, SD ± 15%
Reminder that pEC50 means the negative base-10 logarithm of the concentration expressed in mol/L.

Answered cases to consult:
compound	pEC50
COc1cc(C2Nc3nc4ccccc4n3C(N)=C2C#N)cc(Br)c1OC (centres unmarked)	4.11
N#Cc1c(-c2cccc(F)c2)nc2nc3ccccc3n2c1N	4.45
N#CC1=C(n2cccc2)n2c(nc3ccccc32)NC1c1cc(F)cc(F)c1 (centres unmarked)	4.54
N#CC1=C(n2cccc2)n2c(nc3ccccc32)NC1c1cccc(F)c1 (centres unmarked)	4.69
N#CC1=C(n2cccc2)n2c(nc3ccccc32)NC1c1ccc(F)cc1 (centres unmarked)	4.49
N#Cc1c(-c2cc(F)cc(F)c2)nc2nc3ccccc3n2c1N	4.86

Record N#CC1=C(n2cccc2)n2c(nc3ccccc32)NC1c1ccccc1F (centres unmarked) has Leishmania major promastigotes pEC50 equal to 4.82

* * *

quantity-measured: melting point

Answered cases to consult:
compound	melting point
N#Cc1c(-c2cc(F)cc(F)c2)nc2nc3ccccc3n2c1N	> 370 °C (dec.)
N#CC1=C(N)n2c(nc3ccccc32)NC1c1cccnc1 (centres unmarked)	289 to 290 °C

Form: compound = COc1cc(C2Nc3nc4ccccc4n3C(N)=C2C#N)cc(Br)c1OC (centres unmarked) ; melting point = 282 to 283 °C

Form: compound = N#CC1=C(n2cccc2)n2c(nc3ccccc32)NC1c1ccccc1F (centres unmarked) ; melting point = > 240 °C (dec.)

Form: compound = N#CC1=C(n2cccc2)n2c(nc3ccccc32)NC1c1cc(F)cc(F)c1 (centres unmarked) ; melting point = > 240 °C

Form: compound = N#CC1=C(n2cccc2)n2c(nc3ccccc32)NC1c1ccc(F)cc1 (centres unmarked) ; melting point = > 260 °C

Form: compound = N#CC1=C(N)n2c(nc3ccccc32)NC1c1cc(F)cc(F)c1 (centres unmarked) ; melting point = 279 to 280 °C

Form: compound = N#Cc1c(-c2ccccc2F)nc2nc3ccccc3n2c1N ; melting point = > 350 °C (dec.)

Form: compound = N#CC1=C(n2cccc2)n2c(nc3ccccc32)NC1c1cccc(F)c1 (centres unmarked) ; melting point = > 260 °C (dec.)

Form: compound = N#Cc1c(-c2cccc(F)c2)nc2nc3ccccc3n2c1N ; melting point = > 370 °C (dec.)

Form: compound = N#CC1=C(N)n2c(nc3ccccc32)NC1c1cccc(F)c1 (centres unmarked) ; melting point = 216 to 217 °C (dec.)
